Measured TGI, listed per entry for reference.
# System: SF-268 CNS
# PROCEDURE SUMMARY: NCI tumour cell line growth inhibition, 48 h

# COMPOUND, TGI
rows = [
    ("O=Nc1c2cccnc2n2nnc3ccc(Cl)cc3c12", "9.4 µM"),
    ("CN(C)CCNC(=O)c1cccc(CO)c1[N+](=O)[O-]", "> 100 µM"),
    ("Cc1cc(O)cc(C)c1/C=C/c1cncc(C(=O)N(C)C)c1", "> 25 µM"),
    ("CCOC(=O)C(=O)Nc1c(C)cccc1CC", "> 100 µM"),
    ("Nc1cc(CO)cc(Nc2c3ccccc3nc3occc23)c1", "87.3 µM"),
    ("O=C1C=C(c2cc(Br)c(O)c(Br)c2)/C(=C/c2cc(Br)c(O)c(Br)c2)O1", "> 75 µM"),
]
